Below, each of the molecules is paired with its reported melting point value.

Consider the reported melting point for these molecules:
COc1cc(Nc2nccc(-c3ccc4c(c3)CCCC4)n2)cc(OC)c1OC
150 to 151 °C
CN(C)CC(O)C(c1ccccc1)c1ccc(F)cc1 (centres undefined)
55 to 57 °C
N=C(N)N(Cc1ccccc1)c1ccc2c3c(cccc13)CC2
138 to 140 °C

Would you kindly share the measured melting point for CCN(CC)C(=O)Oc1cc(-c2cccs2)nc2ccccc12 ?
72 °C

Would you kindly share the measured melting point for COc1ccc(-n2nc(-c3ccc(OC)c(CCC(=O)N(C)O)c3OC)cc2-c2ccc(Cl)cc2)cc1 ?
90 to 92 °C

###

MEASURED QUANTITY: melting point

Consider the reported melting point for these compounds:
O=c1[nH]c2sc(Cl)c(Cl)c2[nH]c1=O
> 300 °C
N#CC1(Cl)C=C(O)C=NC1 (stereo not given)
182 to 184 °C

Would you kindly share the measured melting point for Oc1ccccc1-c1nc(-c2ccccc2O)nc(-c2ccccc2O)n1 ?
147 to 149 °C

Would you kindly share the measured melting point for O=[N+]([O-])c1ccc(SSc2nc3ccccc3s2)c(C(Cl)(Cl)Cl)c1 ?
97 °C

Would you kindly share the measured melting point for COCCOc1ccc(/C=C(\C)C(=O)O)c(Oc2ncc(C(F)(F)F)cc2Cl)c1 ?
122 °C

###

MEASURED QUANTITY: melting point

Consider the reported melting point for these molecules:
COc1ccc(C(O)CN(Cc2ccccc2)Cc2ccccc2)cc1C(N)=O (centres undefined)
120 to 123 °C
CCOc1c(Nc2cccc(C3C(C(=O)OC)=C(C)NC(C)=C3C(=O)OC)c2)c(=O)c1=O
249 to 252 °C
CC(C)(C)OC(=O)N(C(=O)OC(C)(C)C)c1cc(-c2ccc([N+](=O)[O-])cc2)n(C(=O)OC(C)(C)C)n1
154 to 155 °C

Would you kindly share the measured melting point for CO[C@@H](C(=O)N[C@H]1CC[C@@H](OC(=O)CCc2ccccc2)CNC1=O)[C@H](O)[C@@H](O)[C@H](O)/C=C/C(C)(C)C ?
75 to 77 °C

Would you kindly share the measured melting point for O=C(/C=C/c1cccc(S(=O)(=O)N2CCN(CCc3ccc4ccccc4c3)CC2)c1)NO ?
184 °C

Would you kindly share the measured melting point for N#CC1=Cc2ccc(OCc3ccccc3)cc2OC1 ?
108 to 109 °C

Would you kindly share the measured melting point for N#Cc1ccc(OC[C@H](O)CO)cc1 ?
63 to 65 °C

Would you kindly share the measured melting point for COc1ccc(-c2nc(NC(=O)c3ccccc3)sc2-c2ccnc(NC(=O)c3ccccc3)c2)cc1 ?
230 to 233 °C

Would you kindly share the measured melting point for O=C1C(=O)c2ccccc2C2=C1SCC1(CCN(CCOc3ccc(Cl)cc3)CC1)O2 ?
131 to 133 °C

Would you kindly share the measured melting point for CC(C)(C)c1ccc(NC(=O)c2cccc(C(OC(=O)Nc3ccc4[nH]ncc4c3)[C@@H]3CCCCN3)c2)cc1 (some centres undefined) ?
214 °C

Would you kindly share the measured melting point for Nc1nc(-c2ccc(CCN3CCN(c4cccc5cc(Cl)ccc45)CC3)cc2)cs1 ?
210 to 215 °C

Would you kindly share the measured melting point for O=C(O)CC(CC(=O)O)Cc1ccc(O)cc1 ?
117 to 119 °C

Would you kindly share the measured melting point for COc1cc(Nc2c(C#N)cnc3cc(-c4csc(C5OCCO5)c4)ccc23)c(Cl)cc1Cl ?
234 to 236 °C

Would you kindly share the measured melting point for CCN(CC)CCOc1ccc(Nc2ncc3c(n2)N(C)C(=O)N(c2ccccc2Cl)C3)cc1 ?
150 to 151 °C
